- study-target: hGIPR (Homo sapiens)
- Sequence (P48546 22-466): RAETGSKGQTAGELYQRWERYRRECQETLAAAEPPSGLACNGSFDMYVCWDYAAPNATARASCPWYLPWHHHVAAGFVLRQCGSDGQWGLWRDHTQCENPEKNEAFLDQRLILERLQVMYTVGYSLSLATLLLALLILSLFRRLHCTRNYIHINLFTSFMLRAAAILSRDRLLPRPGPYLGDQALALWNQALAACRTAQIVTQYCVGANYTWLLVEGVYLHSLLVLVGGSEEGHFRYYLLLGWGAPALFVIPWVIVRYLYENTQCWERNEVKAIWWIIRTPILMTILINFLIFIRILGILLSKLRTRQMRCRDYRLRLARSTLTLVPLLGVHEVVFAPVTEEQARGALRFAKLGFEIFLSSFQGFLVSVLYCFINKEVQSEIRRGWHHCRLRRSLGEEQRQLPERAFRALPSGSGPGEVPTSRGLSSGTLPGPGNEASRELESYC
- protocol-description: Functional cAMP activation in the presence of 0.1% casein (no HSA);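 also: intracellular cAMP rise after 30 min at 37 °C read by HTRF against a standard curve, scaled between buffer alone (0%) and top control ligand concentration (100%), four-parameter fit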
- Type: cell-based
- stated-conditions: in the presence of 0.1% casein (no HSA); geometric mean; read-out: Relative cAMP EC50, hGIPR
Starred links: 1 amine or outer side, 2 acyl side, 3 side chain; linkers in the order of their positions; H or OH if unused. Non-standard residues stand in square brackets, D forms with d. Groups on a side chain read outwards from the residue. *: point of attachment. C20 diacid = O=C(O)CCCCCCCCCCCCCCCCCCC(=O)*; C18 diacid = O=C(O)CCCCCCCCCCCCCCCCC(=O)*; γGlu = O=C(O)[C@H](CCC(=O)[*:2])N[*:1]; αMe4Pal = C[C@](N)(Cc1ccncc1)C(=O)O; 4Pal = N[C@@H](Cc1ccncc1)C(=O)O; αMeL = CC(C)C[C@](C)(N)C(=O)O; Orn = NCCC[C@H](N)C(=O)O; AEEA = NCCOCCOCC(=O)O; Aib = CC(C)(N)C(=O)O
readout-name: EC50 (pM)
State the answer as a number, implicitly in pM.

Solved cases (5 shown):
substance: H-Y[Aib]QGTFTSD[4Pal]SQ[αMeL]LDKK([γGlu-γGlu-C18 diacid])AQ[αMe4Pal]AFIEYLIE[Aib]GPSSGAPPPSGTGE-NH2 [Example 1127]
study-target: hGIPR (Homo sapiens)
units-symbol: pM
EC50: 167
--
substance: H-Y[Aib]QGTFTSDYSI[αMeL]LDKK([AEEA-AEEA-γGlu-C20 diacid])AA[Aib]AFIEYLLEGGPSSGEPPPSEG-NH2 [Example 294]
study-target: hGIPR (Homo sapiens)
units-symbol: pM
EC50: 318
--
substance: H-Y[Aib]QGTFTSDFSK[αMeL]LDKK([AEEA-AEEA-γGlu-C20 diacid])AQ[Aib]AFIEYLLEGGPSSGAPPPGEG-NH2 [Example 17]
study-target: hGIPR (Homo sapiens)
units-symbol: pM
EC50: 317
--
substance: H-Y[Aib]QGTFTSD[4Pal]S[Orn][αMeL]LDKK([AEEA-γGlu-C18 diacid])AQ[αMe4Pal]AFIEYLIE[Aib]GPSSGAPPPSGS-NH2 [Example 808]
study-target: hGIPR (Homo sapiens)
units-symbol: pM
EC50: 187
--
substance: H-Y[Aib]QGTFTSD[4Pal]SQ[αMeL]LD[Orn]K([γGlu-γGlu-C18 diacid])AQ[αMe4Pal]AFIEYLIAGGPSSGEPPPSGSE-NH2 [Example 1008]
study-target: hGIPR (Homo sapiens)
units-symbol: pM
EC50: 140

Bench note: what EC50 did H-Y[Aib]QGTFTSDFSK[αMeL]LDKK([AEEA-γGlu-C20 diacid])AQ[Aib]AFIEYLLEGGPSSGEPPPEEG-NH2 [Example 35] show?
550

Bench note: what EC50 did H-Y[Aib]QGTFTSD[4Pal]SQ[αMeL]LDKK([γGlu-γGlu-C18 diacid])AQ[αMe4Pal]AFIEYLIAGGPSSGAPPPSGE-NH2 [Example 883] show?
77.9
